# System under test: hCB1 (Homo sapiens, UniProt P21554)
# Sequence (P21554 whole entry): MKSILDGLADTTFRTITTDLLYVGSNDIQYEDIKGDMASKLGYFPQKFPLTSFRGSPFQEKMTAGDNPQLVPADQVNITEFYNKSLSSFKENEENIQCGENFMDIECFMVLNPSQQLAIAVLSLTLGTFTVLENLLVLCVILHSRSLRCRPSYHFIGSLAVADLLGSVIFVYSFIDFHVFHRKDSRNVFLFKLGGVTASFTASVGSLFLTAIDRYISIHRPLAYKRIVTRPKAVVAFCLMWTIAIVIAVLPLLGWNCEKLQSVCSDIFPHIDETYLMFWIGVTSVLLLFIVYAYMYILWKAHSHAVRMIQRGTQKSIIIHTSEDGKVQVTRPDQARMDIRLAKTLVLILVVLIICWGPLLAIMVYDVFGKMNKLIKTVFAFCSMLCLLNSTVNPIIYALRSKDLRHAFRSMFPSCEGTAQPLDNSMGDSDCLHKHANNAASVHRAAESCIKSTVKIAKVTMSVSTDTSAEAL
# Run description: functional fluorescent CB1 activated Gαq16-coupled intracellular calcium mobilization assay in CHO-K1 cells
# Type: cell-based
# Parameters: expressed in transfected cells; host or cells: CHO-K1 (membranes)
# Details: average of 3-6 measurements, read-out: Apparent antagonist dissociation constant (Ke) at hCB1
Binned Kb; ranges: low = under 10 nM, mid = from 10 nM up to 100 nM, high = 100 nM and over

1) Cn1ccc(-n2c(-c3ccccc3Cl)nc3c(N4CCN(Cc5ccccc5Cl)CC4)ncnc32)n1 ... high
2) N#Cc1ccc(N2CCN(c3ncnc4c3nc(-c3ccccc3Cl)n4-c3ccc(Cl)cc3)CC2)nc1 ... mid
3) Cn1cc(-n2c(-c3ccccc3Cl)nc3c(N4CCC(NS(=O)(=O)c5ccc(F)c(F)c5)CC4)ncnc32)cn1 ... high
4) CCCCC(=O)NC1CCN(c2ncnc3c2nc(-c2ccncc2C)n3-c2ccc(Cl)cc2)CC1 ... mid
5) Clc1ccc(-n2c(-c3ccccc3Cl)nc3c(N4CCC(Nc5ccccn5)CC4)ncnc32)cc1 ... mid
6) Clc1ccc(-n2c(-c3sccc3Cl)nc3c(N4CCN(Cc5ccccc5Cl)CC4)ncnc32)cc1 ... high
7) CN(Cc1ccccc1)C1CCN(c2ncnc3c2nc(-c2ccccc2Cl)n3-c2ccc(Cl)cc2)CC1 ... high
8) Clc1ccc(-n2c(-c3ccccc3Cl)nc3c(N4CCN(c5ccc(OCc6ccccc6)cc5)CC4)ncnc32)cc1 ... mid
9) FC(F)Oc1ccc(-n2c(-c3ccccc3Cl)nc3c(N4CCN(Cc5ccccc5Cl)CC4)ncnc32)cn1 ... mid
10) O=S(=O)(NC1CCN(c2ncnc3c2nc(-c2ccccc2Cl)n3-c2ccc(Cl)cc2)CC1)c1ccc(F)cc1F ... low
11) CCCCC(=O)NC1(c2ccccc2)CCN(c2ncnc3c2nc(-c2ccncc2Cl)n3-c2ccc(Cl)cc2)CC1 ... mid
12) Clc1ccc(-n2c(-c3ccccc3Cl)nc3c(N4CCC(NCc5ccncc5)CC4)ncnc32)cc1 ... high
13) O=C(Nc1ccccc1)N1CCN(c2ncnc3c2nc(-c2ccccc2Cl)n3-c2ccc(C(F)(F)F)nc2)CC1 ... low
14) CCCCS(=O)(=O)N1CCN(c2ncnc3c2nc(-c2ccccc2Cl)n3-c2ccc(Cl)cc2)CC1 ... low
15) CCCCC(=O)NC1CCN(c2ncnc3c2nc(-c2ccncc2Cl)n3-c2ccc(Cl)cc2)CC1 ... mid
16) CC(C)S(=O)(=O)N1CCN(c2ncnc3c2nc(-c2ccccc2Cl)n3-c2ccc(Cl)cc2)CC1 ... low
17) Cc1cc(-n2c(-c3ccccc3Cl)nc3c(N4CCN(Cc5ccccc5Cl)CC4)ncnc32)no1 ... high
18) CC(C)CS(=O)(=O)N1CCN(c2ncnc3c2nc(-c2ccccc2Cl)n3-c2ccc(Cl)cc2)CC1 ... low
19) FC(F)(F)c1ccc(-n2c(-c3ccccc3Cl)nc3c(N4CCN(Cc5ccccc5Cl)CC4)ncnc32)cn1 ... high
20) Clc1ccc(-n2c(-c3ccccc3Cl)nc3c(N4CCC(c5nc6ccccc6[nH]5)CC4)ncnc32)cc1 ... mid
21) O=S(=O)(NC1CCN(c2ncnc3c2nc(-c2ccccc2Cl)n3-c2ccc(Cl)cc2)CC1)c1ccc(F)cc1 ... low
22) Cc1noc(C)c1-c1nc2c(N3CCN(Cc4ccccc4Cl)CC3)ncnc2n1-c1ccc(Cl)cc1 ... high
23) Clc1ccc(-n2c(-c3ccccc3Cl)nc3c(N4CCC(Nc5ccccc5)CC4)ncnc32)cc1 ... low
24) CCCCC(=O)NC1(c2ccccc2)CCN(c2ncnc3c2nc(-c2ccncc2)n3-c2ccc(Cl)cc2)CC1 ... high
25) CN(Cc1ccc(F)cc1)C1CCN(c2ncnc3c2nc(-c2ccccc2Cl)n3-c2ccc(Cl)cc2)CC1 ... high
26) O=S(=O)(NC1CCN(c2ncnc3c2nc(-c2ccccc2Cl)n3-c2ccc(Cl)cc2)CC1)c1ccccc1F ... low
27) O/N=C(/c1ccc(F)cc1)C1CCN(c2ncnc3c2nc(-c2ccccc2Cl)n3-c2ccc(Cl)cc2)CC1 ... mid
28) Clc1ccc(-n2c(-c3ccccc3Cl)nc3c(N4CCN(c5nc6ccccc6[nH]5)CC4)ncnc32)cc1 ... mid
